MEASURED_ON: T1, Human PD-1 extracellular domain, hFc tag (human, UniProt Q15116 25-170)
T1 construct: extracellular domain; also called hPro1.ECD.hFc; not shown: human Fc tag at C-terminus
ASSAY_METHOD_TEXT: SPR Biacore 8K; PD-1-hFc captured on anti-human Fc chip, VHH injected; 1:1 fit
ASSAY_ENDPOINT: koff (s⁻¹)

# example entries with known answers
AP17R1-2H2-Z1-R1-6E1 (VHH, not shown: his- and c-Myc-tag from vector pETbac) VHH: QVQLVESGGGVVQPGGSLRLSCAASDSIDSMVNMGWYRQAPGKQRELVALIANYITHYADFVKGRFTISRDNSKNTLYLQMNSLRAEDTAVYYCYARNIIVDYWGQGTLVTVSS    0.00328
AP17R1-2H2-Z1 (VHH, also called the humanized AP17R1-2H2; not shown: his- and c-Myc-tag from vector pETbac) VHH: QVQLVESGGGVVQPGGSLRLSCAASDSIDSLVNMGWYRQAPGKQRELVALIANYITHYADFVKGRFTISRDNSKNTLYLQMNSLRAEDTAVYYCYARNIIVDYWGQGTLVTVSS    0.00392
AP17R1-2H2-Z1-R1-4D8 (VHH, not shown: his- and c-Myc-tag from vector pETbac) VHH: QVQLVESGGGVVQPGGSLRLSCAASDSIQSLVNMGWYRQAPGKQRELVALIANYITHYADFVKGRFTISRDNSKNTLYLQMNSLRAEDTAVYYCYARNIIVDYWGQGTLVTVSS    0.00396
AP17R1-2H2-Z1-R1-14F3 (VHH, not shown: his- and c-Myc-tag from vector pETbac) VHH: QVQLVESGGGVVQPGGSLRLSCAASDSIDSLVNMGWYRQAPGKQRELVALIAWYITHYADFVKGRFTISRDNSKNTLYLQMNSLRAEDTAVYYCYARNIIVDYWGQGTLVTVSS    0.00109

a. AP17R1-2H2-Z1-R1-14F1 (VHH, not shown: his- and c-Myc-tag from vector pETbac) VHH: QVQLVESGGGVVQPGGSLRLSCAASDSIDSLVNMGWYRQAPGKQRELVALIAYYITHYADFVKGRFTISRDNSKNTLYLQMNSLRAEDTAVYYCYARNIIVDYWGQGTLVTVSS
b. AP17R1-2H2-Z1-R1-29B6 (VHH, not shown: his- and c-Myc-tag from vector pETbac) VHH: QVQLVESGGGVVQPGGSLRLSCAASDSIDSLVNMGWYRQAPGKQRELVALIANYITHYADFVKGRFTISRDNSKNTLYLQMNSLRAEDTAVYYCYARNIYVDYWGQGTLVTVSS
## Input Decide: a or b , by lowest recorded koff. Answer = label.
## Output a
